tested on: MCC-13; assay: qHTS assay to identify novel small-molecules to repurpose for Merkel cell carcinoma treatment (AID 1296009); conditions: MCC and control cell lines, CellTiter-Glo viability, 72 h; series mostly up to 46 µM; further: nearly all actives have a fitted effect of over 60% in size
Records with an inconclusive call do not appear. Active and inactive are the calls of the source. The call rests on the fitted dose curve; in most records, active means well fitted inhibition curve with a large enough effect; inconclusive means small, poorly fitted or top-dose-only effect; inactive means flat fitted curve, though single readings scatter.
Outcome codes: true (active), false (inactive)

- molecule: "Cc1c(C(=O)O)c(O)cc2c1C(=O)c1c(O)c([C@@H]3O[C@H](CO)[C@@H](O)[C@H](O)[C@H]3O)c(O)c(O)c1C2=O"
  category_label: "false"
- molecule: "COc1ccnc2c1CCCCC2S(=O)c1nc2ccccc2[nH]1 (stereo unspecified)"
  category_label: "false"
- molecule: "CC(C)OC(=O)c1cc(C(=O)OC(C)C)cc([N+](=O)[O-])c1"
  category_label: "false"
- molecule: "COc1ccc(-c2cc(=S)ss2)cc1"
  category_label: "false"
- molecule: "CCCSc1ccc2nc(NC(=O)OC)[nH]c2c1"
  category_label: "true"
- molecule: "Oc1c(Br)cc(Br)c2cccnc12"
  category_label: "false"
- molecule: "Cc1cc(O)c2ccccc2c1O"
  category_label: "false"
- molecule: "Nc1ccc([N+](=O)[O-])cc1O"
  category_label: "false"
- molecule: "Cc1[nH]cnc1CN1CCc2c(c3ccccc3n2C)C1=O"
  category_label: "false"
- molecule: "CCCCCCCCCCCC(=O)[O][Sn]([CH2]CCC)([CH2]CCC)[O]C(=O)CCCCCCCCCCC"
  category_label: "false"
- molecule: "CC(C(=O)O)c1ccc2c(c1)[nH]c1ccc(Cl)cc12 (stereo unspecified)"
  category_label: "false"
- molecule: "NCCO"
  category_label: "false"
- molecule: "Cc1c(N)c(=O)n(-c2ccccc2)n1C"
  category_label: "false"
- molecule: "O=C(CS)Nc1ccccc1"
  category_label: "false"
- molecule: "CCOc1ccc2nc(S(N)(=O)=O)sc2c1"
  category_label: "false"
- molecule: "CN(C)c1ccc(C(=C2C=CC(=[N+](C)C)C=C2)c2ccccc2)cc1"
  category_label: "true"
- molecule: "CC(=O)c1ccc(OCC(=O)N2CCCCC2)cc1"
  category_label: "false"
- molecule: "CCCOC(=O)c1ccc(O)cc1"
  category_label: "false"
- molecule: "CCCC(=O)OC[C@@H](OC(=O)CCC)[C@@H](OC(=O)CCC)[C@H](Cn1c2nc(=O)[nH]c(=O)c-2nc2cc(C)c(C)cc21)OC(=O)CCC"
  category_label: "false"
- molecule: "CC(N)C(=O)OC(C)(C)Cc1ccc(Cl)cc1 (stereo unspecified)"
  category_label: "false"
- molecule: "C/C(=N\\O)c1ccc(OCC(=O)N2CCCCC2)cc1"
  category_label: "false"
- molecule: "CN(C)c1ccc(N=NS(=O)(=O)O)cc1"
  category_label: "false"
- molecule: "O=C(/C=C/c1ccccc1)NCCO"
  category_label: "false"
- molecule: "Clc1ccccc1-c1nc(-c2ccncc2)no1"
  category_label: "false"
- molecule: "CCCCCCCCCCCCOCCO"
  category_label: "false"
- molecule: "Nc1ccc(C(=O)O)c(O)c1"
  category_label: "false"

Entry source: PubChem BioAssay (NCATS)
